method.summary: yeast display, Sf9 membrane polyspecificity reagent, FACS + sequencing; frameworks hold sequencing errors

residue.codes: QVQLVESGGGLVQAGGSLRLSCAASGSIFDYYAMGWYRQAPGKETELVAAITYGGGSTYYADSVKGRFTISRDNAKNTVYLQMNSLKPEDTAVYYCNALGENYQFNYWGQGTQVTVSS
polyreactivity (PSR sort gate): low polyreactivity
//
residue.codes: QVQLVESGGGSVQAGGSLRLSCAASGYIFGVYDMGWYRQAPGKERELVAAISSGGSTNYADSVKGRFTISRDNAKNTVYLQMNSLKPEDTAVYYCNADYIFYYEYDYWGQGTQVTVSS
polyreactivity (PSR sort gate): low polyreactivity

---

method.summary: yeast display, Sf9 membrane polyspecificity reagent, FACS + sequencing; frameworks hold sequencing errors
observable: polyreactivity (PSR sort gate)

residue.codes: QVQLVESGGGLLQAGGSLRLSCAASGRIFVHYVMGWYRQAPGKERELVAAINVSGGGTYYADSVKGRFTISRDNAKNTVYLQMNCLKPEDTAVFYCAAGTTQDWPFSSRSYFGHDSWGQGTQVTVSS
reading: low polyreactivity
--
residue.codes: QVQLVESGGGLVQAGGSLRLSCAASGSIFLLYAMGWYRQAPGKERELVAAIRWSGARTYYADSVKGRFTISRDKAKNTVYLQMNSLKPDDTAVYYCAADYVVDDIYWWEGDYWGQGTQVTVSS
reading: high polyreactivity
--
residue.codes: QVQLVESGGGLVQAGGSLRLSCAASGRTFVSNAMGWYRQAPGKERELVAAISWSGSRTYYADSVKGRFTISRDNAKNTVYLQMNSLKPEDTAVYYCAAAKPKKSRGSAYEYWGQGTQVTVSS
reading: high polyreactivity
--
residue.codes: QVQHEESGGGLVQAGGSLRLSSAASGSTFVDYDMGCYRQAPGKVRELVAGITTGGSTNYADSVKGRFTISRDNALNTVYLQLKRLKPEDTAVYYCNSDSYTNLVPDYLYYWYEYWGQGTQVTVSS
reading: low polyreactivity
--
residue.codes: QVQLVESGGGLVQAGGSLRLSCAASGRTFSYNAMGWYRQAPGKERELVAAISYDGGRTYYADSVKGRFTISRDNAKNTVYLQMNSLKPEDTAVYYCAAYPYRGPHPWTIGDYWGQGTQVTVSS
reading: low polyreactivity
--
residue.codes: QVQLVESGGGLVQPGGSLRLSCAASGRTFTGYTMGWYRQAPGKERELVAAIRWSGDRTYYADSVKGRFTISRDNAKNTVYLQMNSLKPEDTAVYYCAAARYVYGKFVGFDYWGQGTQVNVSS
reading: high polyreactivity
--
residue.codes: QVQLVESGGGLVQAGGSLRLSCAASGFIFGYYTMGWYRQAPGKERELVASITRGGSTNYADSVKGRFTISRDNAKNTVYIQMNSLKPEDTAVYYCAKRYAQTYSVSRYYYWGQGTQVTVSS
reading: high polyreactivity
--
residue.codes: QVQLVESGGGLVQAGGSLRLSCASSGSTFYSYVMGWYRQAPGKERELVAVISNDGSTNYADSVKGRFTISRDNAKNSVYLQMNSLKPEDTAVYYCDALKFVRAYRYYYWGQGTQVTVSS
reading: low polyreactivity
--
residue.codes: QVQLVESGGGLVQAGGSLRLSCAASRSTFYRYTMGWYIQAPGKERELVADITGSGGRTYYADSVKGRFTISRDNAKNTVYLQMNSLIPEDTAVYYCNAAYVWYRARAGSEDYWGQGTQVTVSS
reading: high polyreactivity
--
residue.codes: QVQLVESGGGLVQAGGSLRLSCAASGSTSRINAMGWYRQAPGKERELVAGIRANGGRTYYADSVKGRFTISRDNAKNTVYLQMNSLKPEDTAVYYCNKRNWPAEDSWGQGTQVTVSS
reading: high polyreactivity
--
residue.codes: QVQLVESGGGLVQAGGSLRLSCAASGRTLPANGMGWYRQAPGKQREFVAAINWRGGITYYADSVKGRFTISRDNSKNTVYLQMNSLNPEDTAVYYCARLRYFLLNGSLRYGTSDRDYWGQGTQVTVSS
reading: high polyreactivity

---

method.summary: yeast display, Sf9 membrane polyspecificity reagent, FACS + sequencing; frameworks hold sequencing errors

residue.codes: QVQLVESGGGLVQAGGSLRLSCAASGRTFRRYAIGWYRQAPGKERELVATISSGGSTNYADSVKGRFTISRDNAKNTVYLQMNSLKPEDTAVYYCATPQTRTYDYWGQGTQGTVSS
polyreactivity (PSR sort gate): high polyreactivity
//
residue.codes: QVQLVESGGGLVQAGGSLRLSCAASGSIFSYYAMGWYRQAPGKERELVAAINGGDSTNYADSVKGRFTISRDNAKNTVYLQMNSLKPEDTAVYYCAADNYDAALLFEYYYWGQGTQVTVSS
polyreactivity (PSR sort gate): low polyreactivity
//
residue.codes: QVQLVESGGGLVQAGGSLRLSCAASGRTIKRYAMGWYRQAPGKERELVATISRSGSSTYYADSVKGRFTISRDNAKNTVYLQMNSLIPEDTAVYYCNAYVPDIWVNGYDSWGQGTQVTVSS
polyreactivity (PSR sort gate): high polyreactivity
//
residue.codes: KVQLVESRGGLVQAGGSLRLSCAASGRTFIRYAMGWYRQAHGKEREFVAAITWSGGSTYYADSVKGRFTISRDNAKNTVYLQMNSLKPEDTAVYYCAKYPAARAVDYWGQGSQVTVSS
polyreactivity (PSR sort gate): high polyreactivity
//
residue.codes: QVQLVESGGGLFQAGGSLRLSCAASGFTFARYAMGWYRQAPGKEWELVARISWSGGSTYYADSVKGRFTISRDYAKNTFYLQMYSLKPQVTEVYYCAADGWYYRYPRDDYWGQGTQVTVSS
polyreactivity (PSR sort gate): low polyreactivity

---

method.summary: yeast display, Sf9 membrane polyspecificity reagent, FACS + sequencing; frameworks hold sequencing errors

residue.codes: QVQLVESGGGLVQAGGSLRLSCAASGNIFDRYAMGWYRQAPGKERELVAGITWSGGSTYYADSVKGRFTISRDNAKNTVYLQMNSLKPEDTAVYYCGEANYYWGHGTQVTVSS
polyreactivity (PSR sort gate): low polyreactivity
//
residue.codes: QVNLVDSGGGLVQAGGSHRLSCAASGSIVSGNAMGWYRQEPGKERELVATISWSGGSTNYADSVKGRFTISRDNAKNTVYLQMNSLKPEDTAVYYCNAYVAYWGWVYRVDYWGQGTQVTVSS
polyreactivity (PSR sort gate): low polyreactivity
//
residue.codes: QDQLVQSGLGLVQAGGSLRLSCAASGITFYWYTIAWYRQATGKERELVAAISRRGGSTSYADSVKGRFTISRDNAKNTVYLQMNSLKPEDTAVYYCAKTPGWTDYDYWGQGTQVTVSS
polyreactivity (PSR sort gate): high polyreactivity
//
residue.codes: QVQLVESGGRLVQAGGSLRLSCAASGGIFPPNAKGWYRQAPGKERELVASISSDGSTNYADSVKGRFTISRDNAKNTVYLQMNSLKPEDTAVYYCAADSTTSWARLHVRRFYYWGQGTQVTVSS
polyreactivity (PSR sort gate): low polyreactivity
//
residue.codes: QVQLEDSGGGLVQAGGSLRLICAASGSIFGSYAMGWYRHAPGKERELVAAINSGGSTNYADSVKGRFTISRDNAKNTVYLQMNSLKPEDTAVYYCAARLYSNEYRYDYWGQGTQVTVSS
polyreactivity (PSR sort gate): high polyreactivity
//
residue.codes: QVQLVESGGGLVQAGGSLRLSCAASGRTFRDNPMGWYRHAPGKERELVAAISGRGSSTYYADSVKGRFTIARDNAKKTVYLQMNSLKPEDTAVYYCAALPASVRRPGWHDYWGQGTQVTVSS
polyreactivity (PSR sort gate): high polyreactivity
//
residue.codes: QVQLVESGGGLVQAGGSLRLSCAASGITFGSYAMGWYRQAPGKERELVAAITWRGGSTFYADSVKGRFTISRDNAKNTVYLQMNSLKPDDTAVYYCAATLTKYLPRYYWGQGTQVTVSS
polyreactivity (PSR sort gate): low polyreactivity
//
residue.codes: QVQLVESGGGLVQAGGSLRLSCAASGSTFGKNAMAWYRQAPGKERELVAAITSSGGRTYYADSVKGRFTISRDNAKNTVYLQMNSLKPEDTAVYYCNSVTRRRSLGPWPVEYDYWGQGTQVTVSS
polyreactivity (PSR sort gate): high polyreactivity
//
residue.codes: QVQLVESGGGLVQAGGSLRLSCAASGRTFRWYPMGWYRQAPGKERELVAAINPGGSTNYADSVKGRFTISRDNANNTVDLQMNSLKPEDSAVYYCNAAGYDALTQNYYWGQGTQVTVSS
polyreactivity (PSR sort gate): low polyreactivity
//
residue.codes: QVQLVESGGGLVQAGGSLRLSCAASGSIFGYNAMGWSRPAPGKERELVAAITSSGGSTYYADSVKGRFTISRDNAKNTVYLQMNSLKPEDTAVYYCNARDWYIVWYDYWGQGTQVTVSS
polyreactivity (PSR sort gate): low polyreactivity
//
residue.codes: QVQLHESGVGLVQAGGSLRLSCASSGTISYAGPMGWYRQAPGKEREFVAGIGVGSNTNYADSVKGRYTIIRDNAKNTVYLQMNSLKPEDTAVYYCAVGGYAPLGRPYWGQGTQVTVSS
polyreactivity (PSR sort gate): low polyreactivity
//
residue.codes: QVQLVESGGGLVQAGGSLRLSCAASGSIFYVYAMGWYRQAPGKERELVAAINTSSGDTYYADSVKGRFTISRDNAKNTVYLQMNSLKPEDTAVYYCNARTRSSYTIGSYLLSYDYWGQGTQVTVSS
polyreactivity (PSR sort gate): high polyreactivity
//
residue.codes: QVQLVESGGGLVQAGGSLRLSCAASGSIFLNNAMGWYRQAPGKERELVAAITRNVGSTYYADSVKGRFTISRDNEKNTVYLQMNSLKPEDTAVYYCAADRRRRYDYWGQGTQVTVSS
polyreactivity (PSR sort gate): low polyreactivity
//
residue.codes: QVQLVESGGGLVQAGGSLRLSCAASGGIFRYYAMGWYRQAPGKERELVAAISKRGGSTYYADSVKGRFTISRDNAKNTVYLQMNSLKPEDTAVYYCAAEGYYGSSYGYWGQGTQVTVSS
polyreactivity (PSR sort gate): high polyreactivity
//
residue.codes: QVQLVESGGGLVQAGGSLRLSCAASGSTFNHYAMGWYRQAPGKERELVAAITKSGGSTYADSVKGRFTISRDNAKNTVYLQMNSLKPEDTAVYYCAAGRRKYGTKGRGDYWGQGTQVTVSS
polyreactivity (PSR sort gate): low polyreactivity
//
residue.codes: QVQLVESGGGLVQAGGSLRLSCAASGFTFRSNVMGWYRQAPRKERELVAAIRWSGGSTYYADSVKGRFTISRDNAMNTVYLQMNSLKPDDTAVYYCNARIYRSGYKFNYWGQGTQVTVSS
polyreactivity (PSR sort gate): high polyreactivity
//
residue.codes: QVQLVESGGGLVQAGGSLRLSCAASGLTFRAYAMGWYRQAPGKERELVAAITWSGGSTYYADSVKGRFTISRDNAKNTVYLQMNSLKPEDTAVYYCTAVLRAGYWYYSHGYDYWGQGTQVTVSS
polyreactivity (PSR sort gate): low polyreactivity
//
residue.codes: QVQLVESGGGLVQAGGSLRLSCAASGSIFNRYAMGWYRQAPGKERELVAAISSTGSTYYADSVKGRFTISRDNAKNTVYLQMNSLKPEDTAVYYCNADATHDWLRVDTYEYWGQGTQVTVSS
polyreactivity (PSR sort gate): low polyreactivity
//
residue.codes: QVQLVESGGGLVQAGGSLRLSCAASGLTFNKNAMGWYRQAPGKEREFVAAISRRGGSTRYADSVKGRFTISRDNAKNTVYLQMHSLKPEDTAVYYCAKTAVDYYYSYDYWGQGTQVTVSS
polyreactivity (PSR sort gate): high polyreactivity
//
residue.codes: QVQLVESGGGLVQAGGSLRLSCAASGFTFDAYAMGWYRQAPGKERELVADINYSVGSTTYADSVKVRFTISRDNAKNTVYLQMNSLKPEDTAVYYCAAQGTWYAWDYDYWGQGTQVTVSS
polyreactivity (PSR sort gate): low polyreactivity
//
residue.codes: QGQLVESGGGLVQAGGSLRLKCAASVFTFQFYDMGWYRQAPGKEMEFVATITWRAGSTYYADSVKGRFTISRDNAKNTVYLQMNSLKPEDTAVYYCIADYYRHSLDYDYVGYDYWGQGTQVTVSS
polyreactivity (PSR sort gate): low polyreactivity

This collection of values is drawn from the nanobody polyreactivity screen of Harvey et al. (2022).
